Test: Toxicity liver stage against HepG2, at 10uM
Format: cell-based
Set-up: test concentration 10 uM, cell line HepG2-A16-CD81EGFP
Conditions: human, HepG2-A16-CD81EGFP cells; read-out: INHIBITION
readout: cytotoxicity at 10 µM (%)
The reply should be a number in %, with the unit left off.

A selection of reference data follows.
compound	cytotoxicity at 10 µM, %
CC(=O)NCC1CCN(C(=O)CCOc2ccc(C(C)C)cc2)CC1	-11.6
O=C(Cn1cc(C2CC2)nn1)NC(c1ccc(Cl)cc1)C1CC1 (stereo unspecified)	2.16
CCC[C@H]1CN(S(C)(=O)=O)C[C@@H]1NC(=O)COC(C)C	-1.09
Cc1cc(C)nc(C2CCN(C(=O)CCn3nnc4ccccc43)C2)n1 (stereo unspecified)	-0.834
CCN(CCNC(=O)C1CCN(C(C)=O)CC1)c1ccccc1C	-6.19

# get_value(readout='cytotoxicity at 10 µM', item= `Cc1cnccc1NCCNC(=O)[C@H]1CNC[C@H](C(=O)N2CCCC2)C1` )
-124

====

Listing of recorded cytotoxicity at 10 µM by entry.
Test: Toxicity liver stage against HepG2, at 10uM
Type: cell-based
Design: test concentration 10 uM, cell line HepG2-A16-CD81EGFP
Settings: human, HepG2-A16-CD81EGFP cells; read-out: INHIBITION
The reply should be a number in %, with the unit left off.

A selection of reference data follows.
molecule	units-symbol	observed
CC(C)c1noc(OCC(=O)N2CCCCC2C)n1 (stereo unspecified)	%	1.45
Cn1ncc2c(=O)[nH]c(N3CCCC3c3cccs3)nc21 (stereo unspecified)	%	-0.53
O=c1c(=CS(=O)(=O)Nc2ccc(Cl)cc2)[nH]c(=O)n2cccc12	%	-7.67

# get_value(readout='cytotoxicity at 10 µM', item= COCCN(CC1CCCO1)C(=O)CCNC(=O)c1ccccc1F (stereo unspecified) )
-41.7

# get_value(readout='cytotoxicity at 10 µM', item= `CC(C)CNC(=O)Cc1cnc(-n2cccc2)s1` )
-3.66

# get_value(readout='cytotoxicity at 10 µM', item= Cc1c(C(=O)NCC2CCN(Cc3c[nH]cn3)C2)[nH]c2ccccc12 (stereo unspecified) )
-9.8

====

Listing of recorded cytotoxicity at 10 µM by entry.
Assay: Toxicity liver stage against HepG2, at 10uM
Assay type: cell-based
Set-up: test concentration 10 uM, cell line HepG2-A16-CD81EGFP
Details: human, HepG2-A16-CD81EGFP cells; read-out: INHIBITION
Please append the unit to your numeric answer.

A selection of reference data follows.
molecule	observed
NCC1CCCCN1Cc1cc(O)c2cccc(F)c2n1 (stereo not given)	-18.2%
Cc1cncc(C(=O)N2CCCCC2c2nc[nH]n2)c1 (stereo not given)	-0.229%
O=c1[nH]nc(SCC2CCCO2)n1C1CC1 (stereo not given)	0.0288%

// next entry
# get_value(readout='cytotoxicity at 10 µM', item= COc1ccc2c(c1)OCC(CNC(=O)c1ccncc1)C2 (stereo not given) )
-8.63%

====

Test: Toxicity liver stage against HepG2, at 10uM
Assay type: cell-based
Set-up: test concentration 10 uM, cell line HepG2-A16-CD81EGFP
Conditions: human, HepG2-A16-CD81EGFP cells; read-out: INHIBITION
readout: cytotoxicity at 10 µM (%)
The reply should be a number in %, with the unit left off.

A selection of reference data follows.
molecule	units-symbol	cytotoxicity at 10 µM
CC(=O)N1CC(=O)N(c2ccsc2)CC12CCN(Cc1ccoc1)C2 (stereo unspecified)	%	5.56
CC(C)CC(O)C1CCN(Cc2ccc(N(C)C)nc2)CC1 (stereo unspecified)	%	1.75
Cc1cccc(N2CC3(CCN(S(=O)(=O)c4cccs4)C3)CC2=O)c1 (stereo unspecified)	%	-1.21

# get_value(readout='cytotoxicity at 10 µM', item= `Cn1cc(CN2CCn3cc(CNC(=O)c4cccn4C)nc3C2)cn1` )
1.85

# get_value(readout='cytotoxicity at 10 µM', item= `CCNC(=O)NC(=O)CNc1cc(C#N)ccc1OCC` )
-19.7

# get_value(readout='cytotoxicity at 10 µM', item= COc1cccc(-n2nnc(C(=O)N3CCCC(C)C3)c2C)c1 (stereo unspecified) )
-5.33

====

Listing of recorded cytotoxicity at 10 µM by entry.
Assay: Toxicity liver stage against HepG2, at 10uM
Format: cell-based
Design: test concentration 10 uM, cell line HepG2-A16-CD81EGFP
Conditions: human, HepG2-A16-CD81EGFP cells; read-out: INHIBITION
The reply should be a number in %, with the unit left off.

A selection of reference data follows.
molecule	cytotoxicity at 10 µM (%)
Cc1nnc2n1CCN(C(=O)c1ccc(Cn3cccc3)cc1)C2	-2.4
Cc1csc(N2CCN(CC(=O)Nc3c(C)n[nH]c3C)CC2C)n1 (stereo unspecified)	-14.4
Cn1cc(C(=O)NCc2cn3c(n2)CN(CC2CCOC2)CC3)cn1 (stereo unspecified)	5.22
CCCNC(=O)C1(CC2CC(c3ccccc3OC)=NO2)CCOCC1 (stereo unspecified)	21.8
Cc1ccc(-c2noc(C3CCN3C(=O)c3ccn(C)n3)n2)s1 (stereo unspecified)	3.56

# get_value(readout='cytotoxicity at 10 µM', item= `c1ccc(NCc2ccsc2)c(Cn2cncn2)c1` )
1.42

====

Assay: Toxicity liver stage against HepG2, at 10uM
Assay type: cell-based
Set-up: test concentration 10 uM, cell line HepG2-A16-CD81EGFP
Conditions: human, HepG2-A16-CD81EGFP cells; read-out: INHIBITION
readout: cytotoxicity at 10 µM

A selection of reference data follows.
compound	observed
CC(C)(C)CC(=O)NCC(=O)Nc1ccn(Cc2ccncc2)n1	13.2%
CCc1oc(C(=O)NCCc2cc(O)nc(C)n2)cc1CN1CCCC1	13.1%
CN(Cc1noc2c1CCCC2)C(=O)C1Cc2ccccc2CN1C (configuration not stated)	4.74%

# get_value(readout='cytotoxicity at 10 µM', item= COc1ccc(F)c(CN2CCCC(O)(CNC3CCCCC3)C2=O)c1 (configuration not stated) )
8.28%

# get_value(readout='cytotoxicity at 10 µM', item= Cc1cnn(CC(C)Nc2nc3ccccc3o2)c1 (configuration not stated) )
-9.49%

# get_value(readout='cytotoxicity at 10 µM', item= `Cn1c(C2CC2)nc2c1CCN(CCOc1ccccc1C#N)C2` )
-29.8%

# get_value(readout='cytotoxicity at 10 µM', item= `Cc1nc[nH]c1-c1nccn1-c1ccc(C(N)=O)c(N2CCCC2)c1` )
6.23%

# get_value(readout='cytotoxicity at 10 µM', item= `Cn1cc(CN2CCc3onc(C(=O)N4CCCC4)c3C2)cn1` )
-12.2%

# get_value(readout='cytotoxicity at 10 µM', item= CC(C)NC(=O)C1CCc2nnc(C(C)(C)C)n21 (configuration not stated) )
2.74%

# get_value(readout='cytotoxicity at 10 µM', item= c1ccc(Cc2noc(CN3CCCC3C3CCCCC3)n2)cc1 (configuration not stated) )
11.9%

# get_value(readout='cytotoxicity at 10 µM', item= `Cc1nc(NC(=O)NCc2nc3cccc(C)c3n2C)oc1C` )
-6.71%

# get_value(readout='cytotoxicity at 10 µM', item= `N#Cc1ccc(OC2CCN(CC(=O)NCC(F)(F)F)CC2)cc1` )
11.9%

====

Assay: Toxicity liver stage against HepG2, at 10uM
Type: cell-based
Set-up: test concentration 10 uM, cell line HepG2-A16-CD81EGFP
Conditions: human, HepG2-A16-CD81EGFP cells; read-out: INHIBITION
readout: cytotoxicity at 10 µM

A selection of reference data follows.
compound	observed
Cc1nc(CNC(=O)NC2CCN(c3ncccc3Cl)C2)oc1C (stereo unspecified)	2.93%
O=C(c1ccoc1)N1CC[C@H]2C[C@@H](c3ccncn3)O[C@@H]2C1	-76.1%
Cc1cc(C)c(CNC(=O)c2ccc3c(c2)CCC3)c(=O)[nH]1	0.983%
COc1ccc2c(c1)C(=O)N(C)C1(CCN(CC=C(C)C)CC1)N2	3.31%
Cc1cc(C)c2nc(CN[C@H]3CCCNC3)cc(O)c2c1	4.09%
Cc1cc(C)n(C2CN(Cc3ccccn3)C2)n1	-3.67%
Cc1cnc2c(c1NCc1ccc(F)cc1)c(=O)n(C)c(=O)n2C	-7.36%
CCc1cnc(N2CCCOC(CN3CCCC3)C2)nc1 (stereo unspecified)	-5.77%
COc1ccc(CC(=O)Nc2c(C)nc(N3CCOCC3)nc2C)cc1	5.39%
CN(C)S(=O)(=O)N1CCN(C(=O)c2cc(-c3ccccc3)[nH]n2)CC1	-0.665%

// next entry
# get_value(readout='cytotoxicity at 10 µM', item= CNc1nc2c(s1)C(c1c(F)cccc1Cl)CC(=O)N2 (stereo unspecified) )
-14.7%

====

Test: Toxicity liver stage against HepG2, at 10uM
Type: cell-based
Parameters: test concentration 10 uM, cell line HepG2-A16-CD81EGFP
Conditions: human, HepG2-A16-CD81EGFP cells; read-out: INHIBITION
readout: cytotoxicity at 10 µM (%)
The reply should be a number in %, with the unit left off.

A selection of reference data follows.
compound	units-symbol	cytotoxicity at 10 µM
CN(C)[C@@H]1CCN(CC2CC2)[C@H]1Cc1cnn(C)c1	%	-76.9
CN(c1nc(CSc2nnc(Cn3cncn3)o2)cs1)C1CC1	%	6.6
CCOCCNC(=O)C1CCC(=O)N(CCc2ccc(Cl)cc2)C1 (configuration not stated)	%	8.61
CN(C)C(=O)CCS(=O)(=O)Cc1cc(Cl)c2c(c1)OCCO2	%	9.15
Cc1ccc(CNCC2CCN(CC(O)c3ccccc3)CC2)o1 (configuration not stated)	%	-3.33
CN(C)c1ccc(CN(CCCn2ccnc2)Cc2c[nH]cn2)cc1	%	-1.34

# get_value(readout='cytotoxicity at 10 µM', item= `CN1CCC(n2nc(Cc3cccs3)nc2-c2ccncc2)CC1` )
-7.76

# get_value(readout='cytotoxicity at 10 µM', item= Cc1nccn1C1CCCN(C(=O)c2sccc2-n2cnnn2)C1 (configuration not stated) )
-12.2

# get_value(readout='cytotoxicity at 10 µM', item= `COC(=O)c1oc(CNC(C)(C)CO)cc1C` )
10.5

# get_value(readout='cytotoxicity at 10 µM', item= CCn1cc(CN2CCN(C)C3(CCC(=O)N(CC4CC4)CC3)C2)cn1 (configuration not stated) )
-0.764
